# Tested on: NCI-H23 lung
# protocol text: NCI tumour cell line growth inhibition, 48 h
Overview of reported TGI across a group of molecules:
quantity kind: TGI

1. O=C1C(Cl)C(c2cc(Br)cc(Br)c2O)N1n1cnc2ccccc2c1=O (stereo not given) | 86.3 µM
2. CCN1C(=O)C(=C/C=C/c2ccc(OC)cc2)C(=O)N(CC)C1=S | > 100 µM
3. COC(=O)Cc1cccc2c1CCC2=O | > 100 µM
4. CC1CN=C(N(Cc2ccc(F)cc2)C(=O)Nc2ccc(Cl)cc2)S1 (stereo not given) | > 100 µM
5. Sc1ccccc1S | > 100 µM
6. N#C/C(C(=O)Nc1ccccc1)=C(/N)N1CCCC1 | > 100 µM
7. C=CCc1cc(OC)c2c(c1)C(OC(C)=O)CC(c1ccc(OC)c(OC)c1)O2 (stereo not given) | > 100 µM
8. Cc1cccc2c1CC(C1OC(=O)c3ccccc31)C2=O (stereo not given) | > 100 µM
9. O=[N+]([O-])c1ccc(C(Br)c2ccc([N+](=O)[O-])cc2)cc1 | 7.14 µM
10. COc1ccc2c(c1)oc1c(C)c3c(c(C)c12)C(=O)N(N)C3=O | > 100 µM
